- Tested on: endothelial cells (human endothelial-like cells, Eahy926)
- TEST DETAILS: MTT cell viability of endothelial cells (ECs)
- Assay type: cell-based
- PARTICULARS: 250 μM
Kindly state Cell viability (% of control) 250 μM for each of the entries shown.

// batch mode: one Cell viability (% of control) 250 μM value per listed entry
1. Cc1c(Cl)c(O)cc(O)c1C(=O)O[C@@H]1C[C@]2(C)[C@H]3CC(C)(C)C[C@@]3(O)C=C(C=O)[C@]12O
2. Cc1c(Cl)c(O)cc(O)c1C(=O)OCC1=C[C@@H]2CC(C)(C)C[C@@H]2[C@@]2(C)C[C@@H](O)[C@@]12O
3. Cc1c(Cl)c(O)cc(O)c1C(=O)O[C@@H]1C[C@]2(C)C3[C@@H](O)C(C)(C)C[C@@]3(O)C=C(C=O)[C@]12O (some centres unmarked)
4. COc1cc(O)c(C(=O)O[C@@H]2C[C@]3(C)C4C(C=C(C=O)[C@]23O)CC(C)(C)[C@@H]4O)c(C)c1Cl (some centres unmarked)

OUTPUT:
55.2 % of control
8.4 % of control
100.2 % of control
6.8 % of control

Note to self: Cell viability (% of control) 250 μM recorded for Cc1cc(O)cc(O)c1C(=O)O[C@@H]1C[C@]2(C)C3CC(C)(C)CC3C=C(CO)[C@]12O (some centres unmarked) was 6.5 % of control

---

- Test system: endothelial cells (human endothelial-like cells, Eahy926)
- TEST DETAILS: MTT cell viability of endothelial cells (ECs)
- Format: cell-based
- PARTICULARS: 1 μM
READOUT: Cell viability (% of control) 1 μM

COc1cc(O)c(C(=O)O[C@@H]2C[C@@]3(C)C2=C(C=O)C=C2CC(C)(C)C[C@@H]23)c(C)c1Cl	101.4 % of control
Cc1c(Cl)c(O)cc(O)c1C(=O)O[C@@H]1C[C@]2(C)C3[C@@H](O)C(C)(C)C[C@@]3(O)C=C(C=O)[C@]12O (stereo partly drawn)	104.7 % of control
COc1cc(O)c(C(=O)O[C@@H]2C[C@]3(C)C4C(C=C(C=O)[C@]23O)CC(C)(C)[C@@H]4O)c(C)c1Cl (stereo partly drawn)	105.1 % of control
COc1cc(O)c(C(=O)O[C@@H]2C[C@]3(C)C4CC(C)(C)CC4C=C(C=O)[C@]23O)c(C)c1Cl (stereo partly drawn)	98.5 % of control
Cc1c(Cl)c(O)cc(O)c1C(=O)O[C@@H]1C[C@]2(C)[C@H]3CC(C)(C)C[C@@]3(O)C=C(C=O)[C@]12O	96.5 % of control
Cc1c(Cl)c(O)cc(O)c1C(=O)O[C@@H]1C[C@]2(C)C3CC(C)(C)CC3C=C(CO)[C@]12O (stereo partly drawn)	103.7 % of control

// batch mode: one Cell viability (% of control) 1 μM value per listed entry
1. Cc1cc(O)cc(O)c1C(=O)O[C@@H]1C[C@]2(C)C3CC(C)(C)CC3C=C(CO)[C@]12O (stereo partly drawn)
2. COc1cc(O)c(C(=O)O[C@@H]2C[C@]3(C)C4[C@@H](O)C(C)(C)C[C@@]4(O)C=C(C=O)[C@]23O)c(C)c1Cl (stereo partly drawn)

OUTPUT:
1. 93.2 % of control
2. 93.5 % of control

Note to self: Cell viability (% of control) 1 μM recorded for "Cc1c(Cl)c(O)cc(O)c1C(=O)OCC1=C[C@@H]2CC(C)(C)C[C@@H]2[C@@]2(C)C[C@@H](O)[C@@]12O" was 99.7 % of control

---

Kindly state pIC50 for each of the entries shown.
- TEST DETAILS: MTT cell viability of endothelial cells (ECs)
- Assay type: cell-based, human
- PARTICULARS: human, Eahy926 endothelial-like cells, column head prints none, read-out: Cell viability IC50 (cytotoxicity concentration on ECs)
Numbers only, as −log10 of the molar value.

Consider the following illustrative entries.
COc1cc(O)c(C(=O)O[C@@H]2C[C@]3(C)C4[C@@H](O)C(C)(C)C[C@@]4(O)C=C(C=O)[C@]23O)c(C)c1Cl (some centres unmarked) [CH-205-E]	3.66
COc1cc(O)c(C(=O)O[C@@H]2C[C@]3(C)C4CC(C)(C)CC4C=C(C=O)[C@]23O)c(C)c1Cl (some centres unmarked) [CH-205-O]	4.88
Cc1c(Cl)c(O)cc(O)c1C(=O)O[C@@H]1C[C@]2(C)[C@H]3CC(C)(C)C[C@@]3(O)C=C(C=O)[C@]12O [CH-205-N]	3.57
Cc1c(Cl)c(O)cc(O)c1C(=O)O[C@@H]1C[C@]2(C)C3CC(C)(C)CC3C=C(CO)[C@]12O (some centres unmarked) [CH-205-K]	4.67
COc1cc(O)c(C(=O)O[C@@H]2C[C@@]3(C)C2=C(C=O)C=C2CC(C)(C)C[C@@H]23)c(C)c1Cl [CH-205-A]	4.62

// batch mode: one pIC50 value per listed entry
1. Cc1cc(O)cc(O)c1C(=O)O[C@@H]1C[C@]2(C)C3CC(C)(C)CC3C=C(CO)[C@]12O (some centres unmarked) [CH-205-L]
2. Cc1c(Cl)c(O)cc(O)c1C(=O)OCC1=C[C@@H]2CC(C)(C)C[C@@H]2[C@@]2(C)C[C@@H](O)[C@@]12O [CH-205-H]
3. COc1cc(O)c(C(=O)O[C@@H]2C[C@]3(C)C4C(C=C(C=O)[C@]23O)CC(C)(C)[C@@H]4O)c(C)c1Cl (some centres unmarked) [CH-205-P]

OUTPUT:
1: 4.68; 2: 4.53; 3: 4.68

---

Kindly state Cell viability (% of control) 50 μM for each of the entries shown.
- Tested on: endothelial cells (human endothelial-like cells, Eahy926)
- TEST DETAILS: MTT cell viability of endothelial cells (ECs)
- Format: cell-based
- PARTICULARS: 50 μM

Consider the following illustrative entries.
COc1cc(O)c(C(=O)O[C@@H]2C[C@]3(C)C4C(C=C(C=O)[C@]23O)CC(C)(C)[C@@H]4O)c(C)c1Cl (stereo partly drawn) [CH-205-P]	6.8 % of control
Cc1cc(O)cc(O)c1C(=O)O[C@@H]1C[C@]2(C)C3CC(C)(C)CC3C=C(CO)[C@]12O (stereo partly drawn) [CH-205-L]	6.5 % of control
Cc1c(Cl)c(O)cc(O)c1C(=O)OCC1=C[C@@H]2CC(C)(C)C[C@@H]2[C@@]2(C)C[C@@H](O)[C@@]12O [CH-205-H]	34.9 % of control
COc1cc(O)c(C(=O)O[C@@H]2C[C@]3(C)C4CC(C)(C)CC4C=C(C=O)[C@]23O)c(C)c1Cl (stereo partly drawn) [CH-205-O]	7.0 % of control
COc1cc(O)c(C(=O)O[C@@H]2C[C@@]3(C)C2=C(C=O)C=C2CC(C)(C)C[C@@H]23)c(C)c1Cl [CH-205-A]	17.7 % of control
Cc1c(Cl)c(O)cc(O)c1C(=O)O[C@@H]1C[C@]2(C)[C@H]3CC(C)(C)C[C@@]3(O)C=C(C=O)[C@]12O [CH-205-N]	96.5 % of control
COc1cc(O)c(C(=O)O[C@@H]2C[C@]3(C)C4[C@@H](O)C(C)(C)C[C@@]4(O)C=C(C=O)[C@]23O)c(C)c1Cl (stereo partly drawn) [CH-205-E]	80.8 % of control
Cc1c(Cl)c(O)cc(O)c1C(=O)O[C@@H]1C[C@]2(C)C3[C@@H](O)C(C)(C)C[C@@]3(O)C=C(C=O)[C@]12O (stereo partly drawn) [CH-205-Q]	105.5 % of control

The record that follows has no Cell viability (% of control) 50 μM shown yet.
Note to self: Cell viability (% of control) 50 μM recorded for Cc1c(Cl)c(O)cc(O)c1C(=O)O[C@@H]1C[C@]2(C)C3CC(C)(C)CC3C=C(CO)[C@]12O (stereo partly drawn) [CH-205-K] was 6.4 % of control

---

Kindly state Cell viability (% of control) 100 μM for each of the entries shown.
- Tested on: endothelial cells (human endothelial-like cells, Eahy926)
- TEST DETAILS: MTT cell viability of endothelial cells (ECs)
- Format: cell-based
- PARTICULARS: 100 μM

Consider the following illustrative entries.
COc1cc(O)c(C(=O)O[C@@H]2C[C@]3(C)C4CC(C)(C)CC4C=C(C=O)[C@]23O)c(C)c1Cl (stereo partly drawn)	6.5 % of control
Cc1c(Cl)c(O)cc(O)c1C(=O)OCC1=C[C@@H]2CC(C)(C)C[C@@H]2[C@@]2(C)C[C@@H](O)[C@@]12O	12.7 % of control
COc1cc(O)c(C(=O)O[C@@H]2C[C@]3(C)C4[C@@H](O)C(C)(C)C[C@@]4(O)C=C(C=O)[C@]23O)c(C)c1Cl (stereo partly drawn)	63.7 % of control

// batch mode: one Cell viability (% of control) 100 μM value per listed entry
1. COc1cc(O)c(C(=O)O[C@@H]2C[C@]3(C)C4C(C=C(C=O)[C@]23O)CC(C)(C)[C@@H]4O)c(C)c1Cl (stereo partly drawn)
2. Cc1c(Cl)c(O)cc(O)c1C(=O)O[C@@H]1C[C@]2(C)[C@H]3CC(C)(C)C[C@@]3(O)C=C(C=O)[C@]12O
3. Cc1cc(O)cc(O)c1C(=O)O[C@@H]1C[C@]2(C)C3CC(C)(C)CC3C=C(CO)[C@]12O (stereo partly drawn)

OUTPUT:
1: 9.8 % of control; 2: 85.1 % of control; 3: 6.4 % of control

// batch mode: one Cell viability (% of control) 100 μM value per listed entry
1. COc1cc(O)c(C(=O)O[C@@H]2C[C@@]3(C)C2=C(C=O)C=C2CC(C)(C)C[C@@H]23)c(C)c1Cl
2. Cc1c(Cl)c(O)cc(O)c1C(=O)O[C@@H]1C[C@]2(C)C3[C@@H](O)C(C)(C)C[C@@]3(O)C=C(C=O)[C@]12O (stereo partly drawn)
3. Cc1c(Cl)c(O)cc(O)c1C(=O)O[C@@H]1C[C@]2(C)C3CC(C)(C)CC3C=C(CO)[C@]12O (stereo partly drawn)

OUTPUT:
1. 8.4 % of control
2. 108.6 % of control
3. 6.4 % of control
